system: Escherichia coli TOP10; experiment: shrunken log2 fold change of peptide-encoding DNA abundance (4.5 h post-induction vs induction); higher = less antimicrobial activity (less host growth inhibition); settings: time post-induction: 4.5 h; library: site-saturation at positions 5, 18, 19, 20

{"record-sequence": "RRIRPRPPRLPRPRPRPLKFPRP", "measured-on": "Escherichia coli TOP10", "shrunken log2 fold change": -0.368}
{"record-sequence": "RRIRTRPPRLPRPRPRPSMSPRP", "measured-on": "Escherichia coli TOP10", "shrunken log2 fold change": -0.655}
{"record-sequence": "RRIRFRPPRLPRPRPRPATMPRP", "measured-on": "Escherichia coli TOP10", "shrunken log2 fold change": -0.0804}
{"record-sequence": "RRIRMRPPRLPRPRPRPNYRPRP", "measured-on": "Escherichia coli TOP10", "shrunken log2 fold change": -0.133}
{"record-sequence": "RRIRWRPPRLPRPRPRPDYNPRP", "measured-on": "Escherichia coli TOP10", "shrunken log2 fold change": -0.288}
{"record-sequence": "RRIRGRPPRLPRPRPRPLKVPRP", "measured-on": "Escherichia coli TOP10", "shrunken log2 fold change": 0.271}
{"record-sequence": "RRIRSRPPRLPRPRPRPWSCPRP", "measured-on": "Escherichia coli TOP10", "shrunken log2 fold change": 0.194}
{"record-sequence": "RRIRLRPPRLPRPRPRPCVPPRP", "measured-on": "Escherichia coli TOP10", "shrunken log2 fold change": -0.208}

----------
test system: Escherichia coli TOP10; assay: shrunken log2 fold change of peptide-encoding DNA abundance (4.5 h post-induction vs induction); higher = less antimicrobial activity (less host growth inhibition); details: time post-induction: 4.5 h; library: site-saturation at positions 5, 18, 19, 20
// values below are reported shrunken log2 fold change

{"record-sequence": "RRIRIRPPRLPRPRPRPRVCPRP", "measured-on": "Escherichia coli TOP10", "shrunken log2 fold change": 0.00058}
{"record-sequence": "RRIRDRPPRLPRPRPRPSQKPRP", "measured-on": "Escherichia coli TOP10", "shrunken log2 fold change": -0.0691}
{"record-sequence": "RRIRFRPPRLPRPRPRPQRFPRP", "measured-on": "Escherichia coli TOP10", "shrunken log2 fold change": 0.0542}
{"record-sequence": "RRIRIRPPRLPRPRPRPKDEPRP", "measured-on": "Escherichia coli TOP10", "shrunken log2 fold change": -0.00382}
{"record-sequence": "RRIRHRPPRLPRPRPRPYSEPRP", "measured-on": "Escherichia coli TOP10", "shrunken log2 fold change": -0.29}
{"record-sequence": "RRIRPRPPRLPRPRPRPNWIPRP", "measured-on": "Escherichia coli TOP10", "shrunken log2 fold change": -0.441}
{"record-sequence": "RRIRQRPPRLPRPRPRPFQMPRP", "measured-on": "Escherichia coli TOP10", "shrunken log2 fold change": -0.214}
{"record-sequence": "RRIRERPPRLPRPRPRPTDEPRP", "measured-on": "Escherichia coli TOP10", "shrunken log2 fold change": -0.0552}

----------
system: Escherichia coli TOP10; assay: shrunken log2 fold change of peptide-encoding DNA abundance (4.5 h post-induction vs induction); higher = less antimicrobial activity (less host growth inhibition); settings: time post-induction: 4.5 h; library: site-saturation at positions 5, 18, 19, 20
readout-type: shrunken log2 fold change

{"record-sequence": "RRIRSRPPRLPRPRPRPKSDPRP", "recorded-measurement": -0.082}
{"record-sequence": "RRIRCRPPRLPRPRPRPLYKPRP", "recorded-measurement": -0.275}
{"record-sequence": "RRIRYRPPRLPRPRPRPYPFPRP", "recorded-measurement": -0.0218}
{"record-sequence": "RRIRKRPPRLPRPRPRPRWIPRP", "recorded-measurement": 0.112}
{"record-sequence": "RRIRARPPRLPRPRPRPVKIPRP", "recorded-measurement": 0.0527}
{"record-sequence": "RRIRYRPPRLPRPRPRPAYYPRP", "recorded-measurement": -0.318}
{"record-sequence": "RRIRLRPPRLPRPRPRPNMLPRP", "recorded-measurement": -0.58}
{"record-sequence": "RRIRPRPPRLPRPRPRPYCSPRP", "recorded-measurement": -0.294}

----------
tested on: Escherichia coli TOP10; assay: shrunken log2 fold change of peptide-encoding DNA abundance (4.5 h post-induction vs induction); higher = less antimicrobial activity (less host growth inhibition); settings: time post-induction: 4.5 h; library: site-saturation at positions 5, 18, 19, 20;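 further: peptides expressed intracellularly from a pBAD plasmid library in pooled LB shake-flask culture, induced with 0.3% L-arabinose, DNA abundance read by NGS, three biological replicates, DESeq2 with apeglm shrinkage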
Threshold rule: shrunken log2 fold change greater than or equal to -0.08 is yes (1); below that, no (0).

{"record-sequence": "RRIRGRPPRLPRPRPRPLAYPRP", "group-label": "yes (1)"}
{"record-sequence": "RRIRERPPRLPRPRPRPPQKPRP", "group-label": "yes (1)"}
{"record-sequence": "RRIRERPPRLPRPRPRPDTVPRP", "group-label": "yes (1)"}
{"record-sequence": "RRIRQRPPRLPRPRPRPKPFPRP", "group-label": "no (0)"}
{"record-sequence": "RRIRDRPPRLPRPRPRPVDKPRP", "group-label": "yes (1)"}
{"record-sequence": "RRIRLRPPRLPRPRPRPFDKPRP", "group-label": "no (0)"}
{"record-sequence": "RRIRKRPPRLPRPRPRPFPWPRP", "group-label": "yes (1)"}
{"record-sequence": "RRIRYRPPRLPRPRPRPCECPRP", "group-label": "yes (1)"}
{"record-sequence": "RRIRERPPRLPRPRPRPPCRPRP", "group-label": "yes (1)"}
{"record-sequence": "RRIRQRPPRLPRPRPRPTHAPRP", "group-label": "yes (1)"}
{"record-sequence": "RRIRPRPPRLPRPRPRPAYLPRP", "group-label": "no (0)"}
{"record-sequence": "RRIRRRPPRLPRPRPRPTIPPRP", "group-label": "yes (1)"}
{"record-sequence": "RRIRLRPPRLPRPRPRPFEWPRP", "group-label": "no (0)"}
{"record-sequence": "RRIRNRPPRLPRPRPRPTIDPRP", "group-label": "no (0)"}
{"record-sequence": "RRIRPRPPRLPRPRPRPGDWPRP", "group-label": "yes (1)"}
{"record-sequence": "RRIRNRPPRLPRPRPRPSHWPRP", "group-label": "no (0)"}
{"record-sequence": "RRIRHRPPRLPRPRPRPLGEPRP", "group-label": "yes (1)"}
{"record-sequence": "RRIRRRPPRLPRPRPRPMWAPRP", "group-label": "yes (1)"}
{"record-sequence": "RRIRWRPPRLPRPRPRPKYEPRP", "group-label": "yes (1)"}
{"record-sequence": "RRIRCRPPRLPRPRPRPVWKPRP", "group-label": "yes (1)"}
{"record-sequence": "RRIRNRPPRLPRPRPRPWWMPRP", "group-label": "yes (1)"}
{"record-sequence": "RRIRQRPPRLPRPRPRPVFRPRP", "group-label": "no (0)"}
{"record-sequence": "RRIRRRPPRLPRPRPRPQQAPRP", "group-label": "yes (1)"}
{"record-sequence": "RRIRCRPPRLPRPRPRPPRFPRP", "group-label": "yes (1)"}
{"record-sequence": "RRIRPRPPRLPRPRPRPCVHPRP", "group-label": "no (0)"}
{"record-sequence": "RRIRSRPPRLPRPRPRPQEGPRP", "group-label": "yes (1)"}
{"record-sequence": "RRIRGRPPRLPRPRPRPQPWPRP", "group-label": "yes (1)"}
{"record-sequence": "RRIRRRPPRLPRPRPRPCVRPRP", "group-label": "yes (1)"}
{"record-sequence": "RRIRYRPPRLPRPRPRPLYPPRP", "group-label": "no (0)"}
{"record-sequence": "RRIRCRPPRLPRPRPRPICMPRP", "group-label": "no (0)"}
{"record-sequence": "RRIRERPPRLPRPRPRPLDTPRP", "group-label": "yes (1)"}
{"record-sequence": "RRIRGRPPRLPRPRPRPNKPPRP", "group-label": "yes (1)"}
{"record-sequence": "RRIRYRPPRLPRPRPRPPDKPRP", "group-label": "yes (1)"}
{"record-sequence": "RRIRLRPPRLPRPRPRPFMLPRP", "group-label": "no (0)"}
{"record-sequence": "RRIRIRPPRLPRPRPRPPCAPRP", "group-label": "yes (1)"}
{"record-sequence": "RRIRVRPPRLPRPRPRPICTPRP", "group-label": "yes (1)"}
{"record-sequence": "RRIRWRPPRLPRPRPRPADKPRP", "group-label": "yes (1)"}
{"record-sequence": "RRIRRRPPRLPRPRPRPDMPPRP", "group-label": "yes (1)"}
{"record-sequence": "RRIRERPPRLPRPRPRPEMVPRP", "group-label": "yes (1)"}
{"record-sequence": "RRIRMRPPRLPRPRPRPDMRPRP", "group-label": "yes (1)"}
{"record-sequence": "RRIRNRPPRLPRPRPRPYFDPRP", "group-label": "yes (1)"}
{"record-sequence": "RRIRARPPRLPRPRPRPEQVPRP", "group-label": "yes (1)"}
{"record-sequence": "RRIRCRPPRLPRPRPRPKINPRP", "group-label": "no (0)"}
{"record-sequence": "RRIRYRPPRLPRPRPRPANKPRP", "group-label": "no (0)"}
{"record-sequence": "RRIRLRPPRLPRPRPRPRVCPRP", "group-label": "yes (1)"}
{"record-sequence": "RRIRVRPPRLPRPRPRPVIPPRP", "group-label": "no (0)"}
{"record-sequence": "RRIRTRPPRLPRPRPRPWDAPRP", "group-label": "yes (1)"}
{"record-sequence": "RRIRMRPPRLPRPRPRPGYPPRP", "group-label": "yes (1)"}
{"record-sequence": "RRIRERPPRLPRPRPRPCIEPRP", "group-label": "no (0)"}
{"record-sequence": "RRIRSRPPRLPRPRPRPSHFPRP", "group-label": "no (0)"}
{"record-sequence": "RRIRFRPPRLPRPRPRPCYDPRP", "group-label": "yes (1)"}
{"record-sequence": "RRIRLRPPRLPRPRPRPQPFPRP", "group-label": "no (0)"}
{"record-sequence": "RRIRNRPPRLPRPRPRPTPGPRP", "group-label": "yes (1)"}
{"record-sequence": "RRIRNRPPRLPRPRPRPFCIPRP", "group-label": "no (0)"}
{"record-sequence": "RRIRMRPPRLPRPRPRPLETPRP", "group-label": "yes (1)"}
{"record-sequence": "RRIRWRPPRLPRPRPRPDNVPRP", "group-label": "no (0)"}
{"record-sequence": "RRIRVRPPRLPRPRPRPWDWPRP", "group-label": "yes (1)"}
{"record-sequence": "RRIRTRPPRLPRPRPRPMQDPRP", "group-label": "yes (1)"}
{"record-sequence": "RRIRDRPPRLPRPRPRPRPDPRP", "group-label": "yes (1)"}
{"record-sequence": "RRIRMRPPRLPRPRPRPRGWPRP", "group-label": "yes (1)"}
{"record-sequence": "RRIRLRPPRLPRPRPRPHLPPRP", "group-label": "no (0)"}
{"record-sequence": "RRIRARPPRLPRPRPRPGDVPRP", "group-label": "yes (1)"}
